METHOD_NOTES: Volume of distribution at steady state in Sprague-Dawley rat at 0.5 mg/kg, iv
Assay type: ADME, organism-based
Parameters: dose 0.5 mg/kg, route intravenous
CONDITION_PARAMETERS: in vivo, read-out: Vdss
QUANTITY_KIND: Vd (L/kg)
Expressed in L/kg, but write only the number.

Task: Look up Vd: Cc1nc(NCC#N)nc(-n2c(Nc3ccn[nH]3)nc3ccccc32)n1
Result: 1.5

###

Provide the reported AUC of each item.
Test system: Rattus norvegicus
METHOD_NOTES: AUC in Sprague-Dawley rat at 1 mg/kg, iv
Assay type: ADME, organism-based, Plasma
Parameters: dose 1 mg/kg, route intravenous
CONDITION_PARAMETERS: in vivo

Task: Recorded AUC for Cc1nc(N)nc(-n2c(Nc3ccn[nH]3)nc3ccccc32)n1 with Rattus norvegicus, please?
Result: 1680 nM

Task: Recorded AUC for Cc1nc(N)nc(-n2c(Nc3ccn[nH]3)nc3cc(F)c(F)cc32)n1 with Rattus norvegicus, please?
Result: 964 nM

Task: Recorded AUC for Cc1nc(N)nc(-n2c(Nc3ccon3)nc3ccccc32)n1 with Rattus norvegicus, please?
Result: 1930 nM

Task: Recorded AUC for CNc1nc(C)nc(-n2c(Nc3cc[nH]n3)nc3ccccc32)n1 with Rattus norvegicus, please?
Result: 3600 nM

###

METHOD_NOTES: AUC in rat at 50 mg/kg, po
Format: ADME, organism-based
Design: dose 50 mg/kg, route oral
CONDITION_PARAMETERS: plasma
QUANTITY_KIND: AUC (µM·h)
Expressed in µM·h, but write only the number.

Task: Look up AUC: CNc1nc(C)nc(-n2c(Nc3cc[nH]n3)nc3ccccc32)n1
Result: 2.03

###

Provide the reported clearance of each item.
METHOD_NOTES: Clearance in Sprague-Dawley rat at 1 mg/kg, iv and 2 mg/kg, po
Format: ADME, organism-based
CONDITION_PARAMETERS: in vivo
Expressed in L/h/kg, but write only the number.

Task: Look up clearance: Cc1nc(N)nc(-n2c(Nc3ccn[nH]3)nc3ccccc32)n1
Result: 1.9

Task: Look up clearance: Cc1nc(N)nc(-n2c(Nc3ccon3)nc3ccccc32)n1
Result: 1.8

Task: Look up clearance: Cc1nc(N)nc(-n2c(Nc3ccn[nH]3)nc3cc(F)c(F)cc32)n1
Result: 3

Task: Look up clearance: CNc1nc(C)nc(-n2c(Nc3cc[nH]n3)nc3ccccc32)n1
Result: 0.93

###

Provide the reported pIC50 of each item.
Scale explanation: pIC50 corresponds to minus log10 of a concentration expressed in moles per litre.

Task: Recorded pIC50 for Nc1cc(-n2c(Nc3cccc(O)c3)nc3ccccc32)ncn1 with Serine/threonine-protein kinase mTOR (Homo sapiens, UniProt P42345), please?
Result: 5.46

Task: Recorded pIC50 for Cc1nc(N)nc(-n2c(Nc3cn[nH]c3)nc3ccccc32)n1 with Serine/threonine-protein kinase mTOR (Homo sapiens, UniProt P42345), please?
Result: 5.28

Task: Recorded pIC50 for Cc1nc(N)nc(-n2c(Nc3ccn[nH]3)nc3ccccc32)n1 with Serine/threonine-protein kinase mTOR (Homo sapiens, UniProt P42345), please?
Result: 6.41

Task: Recorded pIC50 for Cc1nc(N)nc(-n2c(Nc3cc(O)cc(O)c3)nc3ccccc32)n1 with Serine/threonine-protein kinase mTOR (Homo sapiens, UniProt P42345), please?
Result: 7.01

Task: Recorded pIC50 for Cc1nccc(-n2c(Nc3cccc(O)c3)nc3ccccc32)n1 with Serine/threonine-protein kinase mTOR (Homo sapiens, UniProt P42345), please?
Result: 5.05

Task: Recorded pIC50 for Cc1nc(N)nc(-n2c(Nc3ccn(C)n3)nc3ccccc32)n1 with Serine/threonine-protein kinase mTOR (Homo sapiens, UniProt P42345), please?
Result: 5.28

Task: Recorded pIC50 for CC(=O)Nc1ccc(Nc2nc3ccccc3n2-c2nc(C)nc(N)n2)cc1 with Serine/threonine-protein kinase mTOR (Homo sapiens, UniProt P42345), please?
Result: 6.47

Task: Recorded pIC50 for Cc1nc(N)nc(-n2c(Nc3ccc4cn[nH]c4c3)nc3ccccc32)n1 with Serine/threonine-protein kinase mTOR (Homo sapiens, UniProt P42345), please?
Result: 5.82
